STUDY_SYSTEM: DOR (Homo sapiens, UniProt P41143)
Sequence (P41143 whole entry): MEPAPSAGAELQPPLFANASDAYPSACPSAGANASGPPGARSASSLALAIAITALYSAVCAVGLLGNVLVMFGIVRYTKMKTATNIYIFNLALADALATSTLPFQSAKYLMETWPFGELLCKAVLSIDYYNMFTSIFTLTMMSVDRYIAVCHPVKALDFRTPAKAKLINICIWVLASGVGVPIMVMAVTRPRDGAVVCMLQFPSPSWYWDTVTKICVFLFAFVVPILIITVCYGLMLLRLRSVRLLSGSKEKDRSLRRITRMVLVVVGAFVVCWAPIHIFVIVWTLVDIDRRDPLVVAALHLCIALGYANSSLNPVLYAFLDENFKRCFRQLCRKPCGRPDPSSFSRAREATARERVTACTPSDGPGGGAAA
pKi: −log10 of the molar value. Counter-ions that a name gives are not always drawn.
MEASUREMENT_NAME: pKi

{"columns": ["MOLECULE", "STUDY_SYSTEM", "VALUE"],
 "data": [
  ["CN(C(=O)/C=C/c1ccoc1)[C@@H]1CCC2(O)C3Cc4ccc(O)c5c4[C@@]2(CCN3CC2CC2)[C@H]1O5 (stereo partly shown) [compound 27035, TRK-820 HCl]", "DOR (Homo sapiens, UniProt P41143)", 7.38]
]}
